The origin of these recorded values is the NIST ThermoML archive (doi:10.1016/j.fluid.2014.11.020).

test: activity coefficient (dimensionless); of the first substance listed, at infinite dilution; xn = mol fraction of the nth substance listed; conditions: 333.15 K; Liquid; Chromatography; x1 = 0
Output criterion met for records whose activity coefficient is lower than 1, criterion not met for records at or above 1.

Query string: # TODO verify activity coefficient < 1 strictly for this compound: CC1CCCCC1 [methylcyclohexane] + CCCOC[n+]1ccn(C)c1.N#C[N-]C#N
Result string: criterion not met

Query string: // repeat for CC1CCCC1 [methylcyclopentane] + CCCCCCCCn1cc[n+](COCCCOC[n+]2ccn(CCCCCCCC)c2C)c1C.O=S(=O)([N-]S(=O)(=O)C(F)(F)F)C(F)(F)F.O=S(=O)([N-]S(=O)(=O)C(F)(F)F)C(F)(F)F and report
Result string: criterion not met

Query string: // repeat for CCC[N+](=O)[O-] [1-nitropropane] + CCCCCCCCn1cc[n+](COCCCOC[n+]2ccn(CCCCCCCC)c2C)c1C.N#C[N-]C#N.N#C[N-]C#N and report
Result string: criterion met

Query string: // repeat for Cc1cccc(C)c1 [1,3-dimethylbenzene] + CN(C)c1cc[n+](COCCCOC[n+]2ccc(N(C)C)cc2)cc1.O=S(=O)([N-]S(=O)(=O)C(F)(F)F)C(F)(F)F.O=S(=O)([N-]S(=O)(=O)C(F)(F)F)C(F)(F)F and report
Result string: criterion not met

Query string: // repeat for CCO [ethanol] + CCCCCCCCn1cc[n+](COCCCOC[n+]2ccn(CCCCCCCC)c2C)c1C.O=S(=O)([N-]S(=O)(=O)C(F)(F)F)C(F)(F)F.O=S(=O)([N-]S(=O)(=O)C(F)(F)F)C(F)(F)F and report
Result string: criterion met

Query string: // repeat for CCC[N+](=O)[O-] [1-nitropropane] + CCCOC[n+]1ccn(C)c1.N#C[N-]C#N and report
Result string: criterion not met

---

assay: activity coefficient (dimensionless); of the first substance listed, at infinite dilution; xn = mol fraction of the nth substance listed; settings: 323.15 K; Liquid; Chromatography; x1 = 0
activity coefficient values, listed per item
Give a plain numeric answer without units written out.

Examples with answers:
COMPOUND	activity coefficient
C1CCCCCC1 [cycloheptane] + CCCOC[n+]1ccn(Cc2ccccc2)c1.O=S(=O)([N-]S(=O)(=O)C(F)(F)F)C(F)(F)F	13.4
c1ccncc1 [pyridine] + CCCOC[n+]1ccn(Cc2ccccc2)c1.F[B-](F)(F)F	0.6
C=CCCCC [hex-1-ene] + CCCCCCCCn1cc[n+](COCCCOC[n+]2ccn(CCCCCCCC)c2C)c1C.O=S(=O)([N-]S(=O)(=O)C(F)(F)F)C(F)(F)F.O=S(=O)([N-]S(=O)(=O)C(F)(F)F)C(F)(F)F	2.33
C[N+](=O)[O-] [nitromethane] + CCCOC[n+]1ccn(Cc2ccccc2)c1.O=S(=O)([N-]S(=O)(=O)C(F)(F)F)C(F)(F)F	0.46

Query string: Report activity coefficient for ClC(Cl)Cl [trichloromethane] + CCCOC[n+]1ccn(C)c1.O=S(=O)([N-]S(=O)(=O)C(F)(F)F)C(F)(F)F please.
Result string: 1.03

Query string: // repeat for C#CCCCCC [1-heptyne] + Cn1cc[n+](COCCCOC[n+]2ccn(C)c2)c1.N#C[N-]C#N.N#C[N-]C#N and report
Result string: 27.6

Query string: // repeat for CCCCCCCCCCCC [dodecane] + CCCOC[n+]1ccn(Cc2ccccc2)c1.F[B-](F)(F)F and report
Result string: 483

Query string: // repeat for CCCCCCCC [octane] + CCCCCCCCn1cc[n+](COCCC)c1C.N#C[N-]C#N and report
Result string: 11

Query string: // repeat for CCc1ccccc1 [ethylbenzene] + CCCCCCCCn1cc[n+](COCCCOC[n+]2ccn(CCCCCCCC)c2C)c1C.O=S(=O)([N-]S(=O)(=O)C(F)(F)F)C(F)(F)F.O=S(=O)([N-]S(=O)(=O)C(F)(F)F)C(F)(F)F and report
Result string: 0.75

Query string: // repeat for C1CCCCCC1 [cycloheptane] + CCCCCCCCn1cc[n+](COCCCOC[n+]2ccn(CCCCCCCC)c2C)c1C.N#C[N-]C#N.N#C[N-]C#N and report
Result string: 10.1

Query string: // repeat for CCC(=O)CC [pentan-3-one] + CCCCCCCCn1cc[n+](COCCCOC[n+]2ccn(CCCCCCCC)c2C)c1C.N#C[N-]C#N.N#C[N-]C#N and report
Result string: 0.75

Query string: // repeat for Cc1cccc(C)c1 [1,3-dimethylbenzene] + CCCOC[n+]1ccn(Cc2ccccc2)c1.O=S(=O)([N-]S(=O)(=O)C(F)(F)F)C(F)(F)F and report
Result string: 1.55

Query string: // repeat for Cc1ccccc1 [toluene] + CCCOC[n+]1ccn(Cc2ccccc2)c1.N#C[N-]C#N and report
Result string: 2.29

---

test: activity coefficient (dimensionless); of the first substance listed, at infinite dilution; xn = mol fraction of the nth substance listed; conditions: 333.15 K; Liquid; Chromatography; x1 = 0
activity coefficient values, listed per item
Give a plain numeric answer without units written out.

Examples with answers:
COMPOUND	READOUT NAME	OBSERVED VALUE
CCC(C)=O [butanone] + CCCCCCCCn1cc[n+](COCCC)c1C.N#C[N-]C#N	activity coefficient	0.64
CCO [ethanol] + CN(C)c1cc[n+](COCCCOC[n+]2ccc(N(C)C)cc2)cc1.O=S(=O)([N-]S(=O)(=O)C(F)(F)F)C(F)(F)F.O=S(=O)([N-]S(=O)(=O)C(F)(F)F)C(F)(F)F	activity coefficient	1.11
CCCCCCCCCCC [undecane] + CCCCCCCCn1cc[n+](COCCC)c1C.N#C[N-]C#N	activity coefficient	19.6
CC1CCCC1 [methylcyclopentane] + CCCCCCCCn1cc[n+](COCCC)c1C.N#C[N-]C#N	activity coefficient	4.16
C#CCCCC [1-hexyne] + CCCOC[n+]1ccc(N(C)C)cc1.O=S(=O)([N-]S(=O)(=O)C(F)(F)F)C(F)(F)F	activity coefficient	2.5
C#CCCCC [1-hexyne] + CCCCCCCCn1cc[n+](COCCC)c1C.N#C[N-]C#N	activity coefficient	2.14

// below: activity coefficient requested for another compound
Query string: Report activity coefficient for Cc1ccc(C)cc1 [1,4-dimethylbenzene] + CCCCCCCCn1cc[n+](COCCC)c1C.O=S(=O)([N-]S(=O)(=O)C(F)(F)F)C(F)(F)F please.
Result string: 1.01

---

assay: activity coefficient (dimensionless); of the first substance listed, at infinite dilution; xn = mol fraction of the nth substance listed; conditions: 333.15 K; Liquid; Chromatography; x1 = 0
Threshold check on activity coefficient: at or above 10 gives T, strictly below gives F.

Answered cases to consult:
MOLECULE	DISCRETE LABEL
CCCCCCCCCCC [undecane] + CCCOC[n+]1ccn(C)c1.N#C[N-]C#N	T
CC1CCCC1 [methylcyclopentane] + CCCOC[n+]1ccn(C)c1.N#C[N-]C#N	T
c1ccccc1 [benzene] + CCCCCCCCn1cc[n+](COCCC)c1C.N#C[N-]C#N	F
CCC(C)CC [3-methylpentane] + Cn1cc[n+](COCCCOC[n+]2ccn(C)c2)c1.O=S(=O)([N-]S(=O)(=O)C(F)(F)F)C(F)(F)F.O=S(=O)([N-]S(=O)(=O)C(F)(F)F)C(F)(F)F	T

In the following, a different molecule is considered.
Query string: Check if activity coefficient >= 10 (inclusive). Item: CCc1ccccc1 [ethylbenzene] + CCCOC[n+]1ccn(C)c1.N#C[N-]C#N
Result string: F

---

assay: activity coefficient (dimensionless); of the first substance listed, at infinite dilution; xn = mol fraction of the nth substance listed; conditions: 333.15 K; Liquid; Chromatography; x1 = 0
READOUT NAME: activity coefficient
Give a plain numeric answer without units written out.

Examples with answers:
COMPOUND	activity coefficient
CCCCCCCCCCCCC [tridecane] + CCCOC[n+]1ccn(C)c1.F[B-](F)(F)F	1630
CCO [ethanol] + CCCOC[n+]1ccn(C)c1.O=S(=O)([N-]S(=O)(=O)C(F)(F)F)C(F)(F)F	1.36
Cc1ccccc1 [toluene] + CCCOC[n+]1ccn(Cc2ccccc2)c1.N#C[N-]C#N	2.26

Query string: Report activity coefficient for C=CCCCC [hex-1-ene] + CCCCCCCCn1cc[n+](COCCCOC[n+]2ccn(CCCCCCCC)c2C)c1C.O=S(=O)([N-]S(=O)(=O)C(F)(F)F)C(F)(F)F.O=S(=O)([N-]S(=O)(=O)C(F)(F)F)C(F)(F)F please.
Result string: 2.51

Query string: // repeat for CC1CCCCC1 [methylcyclohexane] + CCCCCCCCn1cc[n+](COCCCOC[n+]2ccn(CCCCCCCC)c2C)c1C.N#C[N-]C#N.N#C[N-]C#N and report
Result string: 5.07

Query string: // repeat for CCCCCCCCC [nonane] + CN(C)c1cc[n+](COCCCOC[n+]2ccc(N(C)C)cc2)cc1.O=S(=O)([N-]S(=O)(=O)C(F)(F)F)C(F)(F)F.O=S(=O)([N-]S(=O)(=O)C(F)(F)F)C(F)(F)F and report
Result string: 52
